Data provenance is patent US7635572B2.

Target: plurality of kinases (Table 5) (Homo sapiens, UniProt P54762)
Sequence (P54762 18-984): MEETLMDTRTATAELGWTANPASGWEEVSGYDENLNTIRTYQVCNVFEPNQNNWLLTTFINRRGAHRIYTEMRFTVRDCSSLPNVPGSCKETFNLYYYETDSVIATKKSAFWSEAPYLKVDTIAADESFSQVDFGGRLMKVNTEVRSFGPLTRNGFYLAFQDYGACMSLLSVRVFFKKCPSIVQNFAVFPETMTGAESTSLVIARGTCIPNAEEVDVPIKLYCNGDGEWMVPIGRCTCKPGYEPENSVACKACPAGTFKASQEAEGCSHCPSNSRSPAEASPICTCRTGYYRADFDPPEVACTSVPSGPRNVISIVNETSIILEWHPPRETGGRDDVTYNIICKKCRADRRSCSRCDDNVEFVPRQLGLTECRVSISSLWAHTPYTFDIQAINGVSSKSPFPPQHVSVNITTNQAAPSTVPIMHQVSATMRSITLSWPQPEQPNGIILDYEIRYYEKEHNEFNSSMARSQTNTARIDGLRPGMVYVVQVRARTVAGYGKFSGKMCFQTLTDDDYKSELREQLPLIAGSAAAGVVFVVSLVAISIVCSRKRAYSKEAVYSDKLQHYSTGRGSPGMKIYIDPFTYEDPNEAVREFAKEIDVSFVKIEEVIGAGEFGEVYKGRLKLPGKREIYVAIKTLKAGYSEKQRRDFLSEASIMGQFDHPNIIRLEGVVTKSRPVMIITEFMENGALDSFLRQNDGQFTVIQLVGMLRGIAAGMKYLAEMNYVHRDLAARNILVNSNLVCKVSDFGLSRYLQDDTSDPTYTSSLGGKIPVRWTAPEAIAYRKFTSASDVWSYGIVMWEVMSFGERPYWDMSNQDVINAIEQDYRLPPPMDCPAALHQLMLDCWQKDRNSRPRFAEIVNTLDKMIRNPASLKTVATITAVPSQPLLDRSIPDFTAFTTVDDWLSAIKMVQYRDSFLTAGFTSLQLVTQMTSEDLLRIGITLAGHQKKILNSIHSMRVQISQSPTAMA
Assay: Further analysis of a plurality of inhibitors and a plurality of kinases on microarray (Example IX, Table 5)
Format: biochemical
Details: plate B8; inhibitor 100 uM
Below: a set of entries, each annotated with reported Inhibition level, EPHB1.

# count of solved cases: 5
O=c1c(-c2ccc(O)cc2)coc2cc(O)cc(O)c12 1
CC(C)(C)n1nc(-c2ccc(Cl)cc2)c2c(N)ncnc21 2
N#C/C(=C/c1ccc(O)c(O)c1)C(=O)NCc1ccccc1 0
CC(=O)c1c(O)c(C)c(O)c(Cc2c(O)c3c(c(C(=O)/C=C/c4ccccc4)c2O)OC(C)(C)C=C3)c1O 1
Cn1cc(C2=C(c3cn(CCCSC(=N)N)c4ccccc34)C(=O)NC2=O)c2ccccc21 0

State the recorded Inhibition level, EPHB1 for this entry: O=c1c(O)c(-c2ccc(O)c(O)c2)oc2cc(O)cc(O)c12 0

State the recorded Inhibition level, EPHB1 for this entry: COc1cc2ncnc(Nc3cccc(Cl)c3)c2cc1OC 2

State the recorded Inhibition level, EPHB1 for this entry: O=S(=O)(NCCNC/C=C/c1ccc(Br)cc1)c1cccc2cnccc12 1

----------
Target: UniProt O43318
Sequence (O43318 1-606): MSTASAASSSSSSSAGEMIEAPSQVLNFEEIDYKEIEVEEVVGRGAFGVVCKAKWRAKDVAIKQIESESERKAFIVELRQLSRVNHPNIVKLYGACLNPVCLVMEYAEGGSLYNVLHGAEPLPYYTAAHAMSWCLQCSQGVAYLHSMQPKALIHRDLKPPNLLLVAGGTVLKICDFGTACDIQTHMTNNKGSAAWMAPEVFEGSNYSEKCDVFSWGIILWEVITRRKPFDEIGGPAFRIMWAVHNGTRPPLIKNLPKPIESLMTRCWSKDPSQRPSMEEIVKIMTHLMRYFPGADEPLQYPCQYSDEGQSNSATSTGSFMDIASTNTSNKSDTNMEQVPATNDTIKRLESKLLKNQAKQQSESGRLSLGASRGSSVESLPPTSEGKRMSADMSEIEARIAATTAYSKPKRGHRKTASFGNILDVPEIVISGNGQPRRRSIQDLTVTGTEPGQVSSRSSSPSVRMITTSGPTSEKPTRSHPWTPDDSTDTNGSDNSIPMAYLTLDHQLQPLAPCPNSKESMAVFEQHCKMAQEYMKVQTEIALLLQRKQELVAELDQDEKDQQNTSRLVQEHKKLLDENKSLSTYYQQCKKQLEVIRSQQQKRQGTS
Assay: Further analysis of a plurality of inhibitors and a plurality of kinases on microarray (Example IX, Table 5);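 for Inhibition level, MAP3K7: level 0 none or unclear then 1 little or marginal then 2 substantial inhibition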
Type: biochemical
Settings: plate G9; inhibitor 100 uM
measured_metric: Inhibition level, MAP3K7
// return just the number, without any unit appended

Hello, I am looking for reported Inhibition level, MAP3K7 with UniProt O43318 for Cn1cc(C2=C(c3cn(CCCSC(=N)N)c4ccccc34)C(=O)NC2=O)c2ccccc21 . Could you help? 2

Hello, I am looking for reported Inhibition level, MAP3K7 with UniProt O43318 for N#C/C(=C/c1ccc(O)c(O)c1)C(=O)NCc1ccccc1 . Could you help? 0

Hello, I am looking for reported Inhibition level, MAP3K7 with UniProt O43318 for COc1cc2ncnc(Nc3cccc(Cl)c3)c2cc1OC . Could you help? 0

Hello, I am looking for reported Inhibition level, MAP3K7 with UniProt O43318 for O=c1c(-c2ccc(O)cc2)coc2cc(O)cc(O)c12 . Could you help? 1

Hello, I am looking for reported Inhibition level, MAP3K7 with UniProt O43318 for O=S(=O)(NCCNC/C=C/c1ccc(Br)cc1)c1cccc2cnccc12 . Could you help? 2

Hello, I am looking for reported Inhibition level, MAP3K7 with UniProt O43318 for CC(C)(C)n1nc(-c2ccc(Cl)cc2)c2c(N)ncnc21 . Could you help? 2

Hello, I am looking for reported Inhibition level, MAP3K7 with UniProt O43318 for CC(=O)c1c(O)c(C)c(O)c(Cc2c(O)c3c(c(C(=O)/C=C/c4ccccc4)c2O)OC(C)(C)C=C3)c1O . Could you help? 2

----------
Biological target: UniProtKB P06241
Sequence (P06241 whole entry): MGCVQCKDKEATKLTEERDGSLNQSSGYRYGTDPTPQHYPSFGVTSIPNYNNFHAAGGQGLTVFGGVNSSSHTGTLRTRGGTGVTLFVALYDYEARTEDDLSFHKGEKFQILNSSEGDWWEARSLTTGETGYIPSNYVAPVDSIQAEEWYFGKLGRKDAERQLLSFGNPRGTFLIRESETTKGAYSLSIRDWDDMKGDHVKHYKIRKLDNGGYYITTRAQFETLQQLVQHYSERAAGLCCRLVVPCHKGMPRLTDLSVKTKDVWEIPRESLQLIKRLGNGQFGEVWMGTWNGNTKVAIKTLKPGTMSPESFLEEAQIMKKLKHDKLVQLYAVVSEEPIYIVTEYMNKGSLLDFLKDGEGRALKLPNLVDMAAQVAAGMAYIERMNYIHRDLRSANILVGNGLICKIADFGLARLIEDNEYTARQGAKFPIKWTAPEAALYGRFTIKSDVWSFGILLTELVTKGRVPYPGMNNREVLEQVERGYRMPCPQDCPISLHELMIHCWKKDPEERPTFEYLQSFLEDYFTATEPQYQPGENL
Assay: Further analysis of a plurality of inhibitors and a plurality of kinases on microarray (Example IX, Table 5);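 for Inhibition level, FYN: level 0 no or unclear inhibition to Level 2 substantial inhibition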
Type: biochemical
Settings: plate A4, Domain 0; inhibitor 100 uM
measured_metric: Inhibition level, FYN
// return just the number, without any unit appended

compound	tested_target	Inhibition level, FYN
N#C/C(=C/c1ccc(O)c(O)c1)C(=O)NCc1ccccc1 [AG 490]	UniProtKB P06241	2

Hello, I am looking for reported Inhibition level, FYN with UniProtKB P06241 for Cn1cc(C2=C(c3cn(CCCSC(=N)N)c4ccccc34)C(=O)NC2=O)c2ccccc21 [Ro-31-8220] . Could you help? 2

Hello, I am looking for reported Inhibition level, FYN with UniProtKB P06241 for O=c1c(-c2ccc(O)cc2)coc2cc(O)cc(O)c12 [Genistein] . Could you help? 2

Hello, I am looking for reported Inhibition level, FYN with UniProtKB P06241 for CC(=O)c1c(O)c(C)c(O)c(Cc2c(O)c3c(c(C(=O)/C=C/c4ccccc4)c2O)OC(C)(C)C=C3)c1O [Rottlerin (Mallotoxin)] . Could you help? 2

Hello, I am looking for reported Inhibition level, FYN with UniProtKB P06241 for COc1cc2ncnc(Nc3cccc(Cl)c3)c2cc1OC [AG 1478] . Could you help? 2

Hello, I am looking for reported Inhibition level, FYN with UniProtKB P06241 for O=S(=O)(NCCNC/C=C/c1ccc(Br)cc1)c1cccc2cnccc12 [H-89] . Could you help? 2

----------
Target: plurality of kinases (Table 5) (Homo sapiens, UniProt Q9Y6E0)
Sequence (Q9Y6E0 whole entry): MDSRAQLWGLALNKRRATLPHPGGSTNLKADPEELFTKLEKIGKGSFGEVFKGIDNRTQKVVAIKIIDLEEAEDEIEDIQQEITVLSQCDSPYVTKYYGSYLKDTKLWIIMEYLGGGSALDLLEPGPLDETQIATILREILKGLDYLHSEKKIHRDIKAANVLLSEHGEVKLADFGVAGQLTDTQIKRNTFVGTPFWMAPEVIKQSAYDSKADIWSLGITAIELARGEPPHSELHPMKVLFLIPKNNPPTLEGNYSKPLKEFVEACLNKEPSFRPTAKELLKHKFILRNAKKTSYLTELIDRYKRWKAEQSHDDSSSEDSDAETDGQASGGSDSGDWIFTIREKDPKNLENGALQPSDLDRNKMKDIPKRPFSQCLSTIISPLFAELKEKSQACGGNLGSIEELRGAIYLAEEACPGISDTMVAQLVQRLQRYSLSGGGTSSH
Test: Further analysis of a plurality of inhibitors and a plurality of kinases on microarray (Example IX, Table 5)
Assay type: biochemical
Conditions: plate F11; inhibitor 100 uM
measured_metric: Inhibition level, STK24
// return just the number, without any unit appended

# count of solved cases: 6
O=c1c(-c2ccc(O)cc2)coc2cc(O)cc(O)c12 2
CC(=O)c1c(O)c(C)c(O)c(Cc2c(O)c3c(c(C(=O)/C=C/c4ccccc4)c2O)OC(C)(C)C=C3)c1O 1
N#C/C(=C/c1ccc(O)c(O)c1)C(=O)NCc1ccccc1 2
COc1cc2ncnc(Nc3cccc(Cl)c3)c2cc1OC 1
O=S(=O)(NCCNC/C=C/c1ccc(Br)cc1)c1cccc2cnccc12 2
CC(C)(C)n1nc(-c2ccc(Cl)cc2)c2c(N)ncnc21 2

Let's switch to this compound now.
State the recorded Inhibition level, STK24 for this entry: Cn1cc(C2=C(c3cn(CCCSC(=N)N)c4ccccc34)C(=O)NC2=O)c2ccccc21 2

----------
Molecular target: plurality of kinases (Table 5) (Homo sapiens, UniProt Q86UE8)
Sequence (Q86UE8 whole entry): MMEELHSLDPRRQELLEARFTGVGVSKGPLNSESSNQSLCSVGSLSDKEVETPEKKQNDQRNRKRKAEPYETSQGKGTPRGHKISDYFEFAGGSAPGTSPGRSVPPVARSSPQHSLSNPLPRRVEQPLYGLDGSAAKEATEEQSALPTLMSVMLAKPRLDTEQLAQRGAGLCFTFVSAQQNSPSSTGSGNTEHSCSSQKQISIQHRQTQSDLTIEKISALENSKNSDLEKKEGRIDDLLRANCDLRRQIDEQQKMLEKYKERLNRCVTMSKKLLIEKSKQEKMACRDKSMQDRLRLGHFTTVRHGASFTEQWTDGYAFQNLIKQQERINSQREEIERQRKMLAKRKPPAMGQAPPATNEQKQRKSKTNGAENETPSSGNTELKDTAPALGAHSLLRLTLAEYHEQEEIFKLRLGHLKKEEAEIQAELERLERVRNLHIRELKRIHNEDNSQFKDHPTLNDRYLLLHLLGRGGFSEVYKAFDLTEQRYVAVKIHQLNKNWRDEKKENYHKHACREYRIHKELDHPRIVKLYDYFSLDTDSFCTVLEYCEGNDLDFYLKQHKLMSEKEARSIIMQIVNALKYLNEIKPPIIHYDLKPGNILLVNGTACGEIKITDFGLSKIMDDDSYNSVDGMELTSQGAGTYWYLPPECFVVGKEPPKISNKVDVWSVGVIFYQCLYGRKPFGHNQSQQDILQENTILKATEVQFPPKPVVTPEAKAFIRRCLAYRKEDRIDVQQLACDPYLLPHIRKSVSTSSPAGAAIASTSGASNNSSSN
Assay: Further analysis of a plurality of inhibitors and a plurality of kinases on microarray (Example IX, Table 5);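 for Inhibition level, TLK2: level 0 none or unclear Level 1 marginal Level 2 substantial inhibition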
Type: biochemical
Conditions: plate C8; inhibitor 100 uM
Below: a set of entries, each annotated with reported Inhibition level, TLK2.
// return just the number, without any unit appended

# count of solved cases: 2
CC(C)(C)n1nc(-c2ccc(Cl)cc2)c2c(N)ncnc21 2
CC(=O)c1c(O)c(C)c(O)c(Cc2c(O)c3c(c(C(=O)/C=C/c4ccccc4)c2O)OC(C)(C)C=C3)c1O 2

Let's switch to this molecule now.
State the recorded Inhibition level, TLK2 for this entry: COc1cc2ncnc(Nc3cccc(Cl)c3)c2cc1OC 2

----------
Target: plurality of kinases (Table 5) (Homo sapiens, UniProt Q9Y616)
Sequence (Q9Y616 1-596): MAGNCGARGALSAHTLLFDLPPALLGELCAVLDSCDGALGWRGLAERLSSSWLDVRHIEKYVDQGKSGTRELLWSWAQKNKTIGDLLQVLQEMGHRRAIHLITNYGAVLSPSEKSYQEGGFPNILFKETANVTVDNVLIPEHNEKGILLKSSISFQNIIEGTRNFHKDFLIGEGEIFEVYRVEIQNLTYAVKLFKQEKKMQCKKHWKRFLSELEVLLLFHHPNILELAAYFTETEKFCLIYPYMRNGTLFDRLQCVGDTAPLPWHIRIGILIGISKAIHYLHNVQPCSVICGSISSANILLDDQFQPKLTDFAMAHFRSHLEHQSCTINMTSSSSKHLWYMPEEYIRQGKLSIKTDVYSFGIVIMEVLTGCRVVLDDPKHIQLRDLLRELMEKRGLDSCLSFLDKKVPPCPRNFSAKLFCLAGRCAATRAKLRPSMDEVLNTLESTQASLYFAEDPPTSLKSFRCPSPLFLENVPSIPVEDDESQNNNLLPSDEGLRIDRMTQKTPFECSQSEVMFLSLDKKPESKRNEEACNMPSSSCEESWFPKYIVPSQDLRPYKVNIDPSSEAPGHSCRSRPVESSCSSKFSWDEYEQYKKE
Assay: Further analysis of a plurality of inhibitors and a plurality of kinases on microarray (Example IX, Table 5);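 note: inhibition of each kinase by the inhibitors is given as a qualitative level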
Format: biochemical
Settings: plate C9; inhibitor 100 uM
Below: a set of entries, each annotated with reported Inhibition level, IRAK3.

State the recorded Inhibition level, IRAK3 for this entry: CC(C)(C)n1nc(-c2ccc(Cl)cc2)c2c(N)ncnc21 2

State the recorded Inhibition level, IRAK3 for this entry: O=c1c(O)c(-c2ccc(O)c(O)c2)oc2cc(O)cc(O)c12 0

State the recorded Inhibition level, IRAK3 for this entry: Cn1cc(C2=C(c3cn(CCCSC(=N)N)c4ccccc34)C(=O)NC2=O)c2ccccc21 2

State the recorded Inhibition level, IRAK3 for this entry: O=S(=O)(NCCNC/C=C/c1ccc(Br)cc1)c1cccc2cnccc12 0

State the recorded Inhibition level, IRAK3 for this entry: N#C/C(=C/c1ccc(O)c(O)c1)C(=O)NCc1ccccc1 0

State the recorded Inhibition level, IRAK3 for this entry: O=c1c(-c2ccc(O)cc2)coc2cc(O)cc(O)c12 2

State the recorded Inhibition level, IRAK3 for this entry: CC(=O)c1c(O)c(C)c(O)c(Cc2c(O)c3c(c(C(=O)/C=C/c4ccccc4)c2O)OC(C)(C)C=C3)c1O 2

State the recorded Inhibition level, IRAK3 for this entry: COc1cc2ncnc(Nc3cccc(Cl)c3)c2cc1OC 2
